TARGET: T1, Antibody 178-10_His CA_W152C_L452R_D614G (27081) (SARS-CoV-2, UniProt P0DTC2 14-685)
T1 construct: domain: S1; also called CA variant S1; California variant S1
PROCEDURE_SUMMARY: Carterra SPR

BINDER	binding result
7-29 (VHH, not shown: a dimerising Fc or GST) VHH: EVQLVESGGGLVQPGGSLRLSCAASGRTHSIYPMGWFRQAPGKEREFVASITSYGDTNYADSVKGRFTISADNSKNTAYLQMNSLKPEDTAVYYCAARRWIPPGPIWGQGTLVTVSS	no binding
7-24 (VHH, not shown: a dimerising Fc or GST) VHH: EVQLVESGGGLVQPGGSLRLSCAASGFTFSRHAMNWFRQAPGKEREFVSTITGSGGSTNYADSVKGRFTISADNSKNTAYLQMNSLKPEDTAVYYCAREVGLYYYGSGSSSRRLLGRIDYYFDYWGQGTLVTVSS	no binding
